The origin of these recorded values is patent US5177251A.

Recorded minimal effective dose, one value per entry.
Test system: ethanol-induced gastric lesions
Assay: Ethanol induced gastric lesion assay in rats (cytoprotective)
Format: in vivo, male Charles River rats
Settings: rat, oral, 30 minutes before absolute ethanol; read-out: Ethanol-Induced Gastric Lesion *MED (Minimal effective dose)
Lab book: enter the figure in mg/kg, no units written.

Below, 2 compounds whose answers are already recorded.
In [3]: df
Out[3]:
                                   compound                 target_or_system      measured_attribute  numeric_value
0  COC(=O)CC/C=C\CC[C@H]1C(=O)C[C@@H](O)[C@@H]1/C=C/C[C@@](O)(/C=C/C1=CCCC1)CF [Example 2]  ethanol-induced gastric lesions  minimal effective dose          0.001
1  COC(=O)CC/C=C\CC[C@H]1C(=O)C[C@@H](O)[C@@H]1/C=C/C[C@@](O)(/C=C/C1=CCCC1)C(F)(F)F (relative stereo) [Example 4]  ethanol-induced gastric lesions  minimal effective dose            0.1

Asked: Short answer please: minimal effective dose, ethanol-induced gastric lesions, entry COC(=O)CC/C=C\CC[C@H]1C(=O)C[C@@H](O)[C@@H]1/C=C/C[C@@](C)(O)/C=C/C=C(Cl)Cl (relative stereo) [Example 9]
Given back: 0.0025

Asked: Okay, and COC(=O)CC/C=C\CC[C@H]1C(=O)C[C@@H](O)[C@@H]1/C=C/C[C@@](O)(/C=C/C1=CCCC1)CF (relative stereo) [Example 1] ?
Given back: 0.001

Asked: Okay, and COC(=O)CC/C=C\CC[C@H]1C(=O)C[C@@H](O)[C@@H]1/C=C/C[C@@](O)(/C=C/C=C(C)C)CF (relative stereo) [Example 10] ?
Given back: 0.025

Asked: Okay, and COC(=O)CC/C=C\CC[C@H]1C(=O)C[C@@H](O)[C@@H]1/C=C/C[C@@](C)(O)/C=C/C=C(\C)C(F)(F)F (relative stereo) [Example 7] ?
Given back: 0.05

Asked: Okay, and COC(=O)CC/C=C\CC[C@H]1C(=O)C[C@@H](O)[C@@H]1/C=C/C[C@@](C)(O)/C=C/C(F)=C(C)C (relative stereo) [Example 8] ?
Given back: 0.001

Asked: Okay, and COC(=O)CC/C=C\CC[C@H]1C(=O)C[C@@H](O)[C@@H]1/C=C/C[C@@](O)(/C=C/C1=CCCC1)C(F)F (relative stereo) [Example 3] ?
Given back: 0.01

Asked: Okay, and COC(=O)CC/C=C\CC[C@H]1C(=O)C[C@@H](O)[C@@H]1/C=C/C[C@@](O)(/C=C/C1=CCCC1)CCl (relative stereo) [Example 5] ?
Given back: 0.01

---

Assay: Diarrheal assay in rats
Format: in vivo, male Charles River rats
Conditions: in vivo, po; rat, intragastric, up to 8 hours; read-out: Diarrhea Rat ED50
measured.attribute: TD50 at 8 h (mg/kg)
Lab book: enter the figure in mg/kg, no units written.

Asked: Name the reported TD50 at 8 h value associated with the compound COC(=O)CC/C=C\CC[C@H]1C(=O)C[C@@H](O)[C@@H]1/C=C/C[C@@](C)(O)/C=C/C=C(Cl)Cl (relative stereo) [Example 9]
Given back: 1
